Where do the numbers come from? From ChEMBL document CHEMBL2074330.

molecular target: Solute carrier organic anion transporter family member 1A1 (Rattus norvegicus); assay: TP_TRANSPORTER: inhibition of LTC4 uptake (LTC4: 0.01uM, p-Chlorophenacyl-SG: 1000 uM) in Xenopus laevis oocytes; format: functional, cell-based, Oocyte; parameters: scale not given: the % may be the effect or the level left; conditions: probe LTC4, read-out: Activity
Sequence (P46720 whole entry): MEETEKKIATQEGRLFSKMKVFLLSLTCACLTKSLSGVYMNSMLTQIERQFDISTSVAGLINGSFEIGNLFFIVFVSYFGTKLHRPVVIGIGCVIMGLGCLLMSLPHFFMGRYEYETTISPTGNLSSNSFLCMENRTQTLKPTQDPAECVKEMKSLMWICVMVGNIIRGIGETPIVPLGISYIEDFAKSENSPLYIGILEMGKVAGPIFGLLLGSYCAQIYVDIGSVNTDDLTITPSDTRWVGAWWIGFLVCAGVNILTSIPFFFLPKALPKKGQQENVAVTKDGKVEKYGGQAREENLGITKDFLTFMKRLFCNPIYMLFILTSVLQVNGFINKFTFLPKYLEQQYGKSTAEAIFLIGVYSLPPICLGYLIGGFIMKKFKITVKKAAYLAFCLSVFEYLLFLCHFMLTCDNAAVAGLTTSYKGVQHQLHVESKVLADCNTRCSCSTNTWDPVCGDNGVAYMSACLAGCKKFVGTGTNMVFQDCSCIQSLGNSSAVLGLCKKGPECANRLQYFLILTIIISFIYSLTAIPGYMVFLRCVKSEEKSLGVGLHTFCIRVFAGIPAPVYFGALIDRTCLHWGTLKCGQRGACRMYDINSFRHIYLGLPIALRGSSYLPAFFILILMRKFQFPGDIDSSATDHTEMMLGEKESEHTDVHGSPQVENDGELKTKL
measurementName: activity at 1000 µM
Number plus unit, in that order.

For the molecule shown here, NC(CCC(=O)N[C@@H](CSCC(=O)c1ccc(Cl)cc1)C(=O)NCC(=O)O)C(=O)O (stereo partly specified) , give the reported activity at 1000 µM.
23%
